These data points were gathered from patent US11679107B2.

Please provide measured CTGlo-ATS Mean MinResponse % 72 h PANC0504.1 for the entries that follow.
Tested on: Panc 05.04 cells (SF3b K700E mutant)
experiment-summary: Cell proliferation and viability, CellTiter-Glo, 72 hours
Format: cell-based
cond: PANC0504.1 cells, 72 h; −100% cidal, 0% static, 100% maximal growth
Quick reminder: number only, in %, skip the unit.

Answer with the recorded CTGlo-ATS Mean MinResponse % 72 h PANC0504.1 of C/C(=C\c1cc(N2CCOCC2)ccc1F)[C@H]1OC(=O)C[C@H](O)CC[C@H](C)[C@@H](OC(=O)N2CCN(C)CC2)/C=C/[C@@H]1C [Compound 7] only.
−89.436

Specify reported CTGlo-ATS Mean MinResponse % 72 h PANC0504.1 for the molecule shown: C/C(=C\c1cc(F)cc(N2CCN(C(=O)c3cn(C)cn3)CC2)c1)[C@H]1OC(=O)C[C@H](O)CC[C@H](C)[C@@H](OC(=O)N2CCN(C)CC2)/C=C/[C@@H]1C [Compound 120]
−78.098

Please list CTGlo-ATS Mean MinResponse % 72 h PANC0504.1 recorded for the molecule C/C(=C\c1cc(F)cc(N2CCOCC2)c1)[C@H]1OC(=O)C[C@H](O)CC[C@H](C)[C@@H](OC(=O)N(C)C2CN3CCC2CC3)/C=C/[C@@H]1C (some centres unmarked) [Compound 98]
−87.759

Specify measured CTGlo-ATS Mean MinResponse % 72 h PANC0504.1 for C/C(=C\c1cc(F)c2nnn(C3CCOCC3)c2c1)[C@H]1OC(=O)C[C@H](O)CC[C@H](C)[C@@H](OC(=O)N2CCN(C)CC2)/C=C/[C@@H]1C [Compound 140] .
−80.398

Given the molecule C/C(=C\c1cc(F)cc(N(C)C2CCN(C)CC2)c1)[C@H]1OC(=O)C[C@H](O)CC[C@H](C)[C@@H](OC(=O)N2CCN(C)CC2)/C=C/[C@@H]1C [Compound 31] , write its reported CTGlo-ATS Mean MinResponse % 72 h PANC0504.1.
−90.716

Give recorded CTGlo-ATS Mean MinResponse % 72 h PANC0504.1. C/C(=C\c1cc(F)cc(N2CCN(CCO)C2=O)c1)[C@H]1OC(=O)C[C@H](O)CC[C@H](C)[C@@H](OC(=O)N2CCN(C)CC2)/C=C/[C@@H]1C [Compound 65]
−88.951

Note down CTGlo-ATS Mean MinResponse % 72 h PANC0504.1 recorded for C/C(=C\c1cc(F)cc(N2CCOC[C@H]2C)c1)[C@H]1OC(=O)C[C@H](O)CC[C@H](C)[C@@H](OC(=O)N2CCN(C)CC2)/C=C/[C@@H]1C [Compound 75]
−81.995

Quick one: give measured CTGlo-ATS Mean MinResponse % 72 h PANC0504.1 for C/C(=C\c1cc(F)cc(N2CCNC2=O)c1)[C@H]1OC(=O)C[C@H](O)CC[C@H](C)[C@@H](OC(=O)N2CCN(C)CC2)/C=C/[C@@H]1C [Compound 64]
−92.050

###

Test system: Panc 05.04 cells (SF3b K700E mutant)
experiment-summary: Cell proliferation and viability, CellTiter-Glo, 72 hours
Format: cell-based
cond: PANC0504.1 cells, 72 h; −100% cidal, 0% static, 100% maximal growth
Assignment: determine reported CTGlo-ATS Mean MinResponse % 72 h PANC0504.1 for the given molecules.
Only the number, expressed in %, is required.

Provide CTGlo-ATS Mean MinResponse % 72 h PANC0504.1, recorded with Panc 05.04 cells (SF3b K700E mutant), of C/C(=C\c1cc(F)cc(N2CCC[C@@H]2C)c1)[C@H]1OC(=O)C[C@H](O)CC[C@H](C)[C@@H](OC(=O)N2CCN(C)CC2)/C=C/[C@@H]1C
−88.777

Given C=CS(=O)(=O)N1CCN(c2cc(F)cc(/C=C(\C)[C@H]3OC(=O)C[C@H](O)CC[C@H](C)[C@@H](OC(=O)N4CCN(C)CC4)/C=C/[C@@H]3C)c2)CC1 , report its CTGlo-ATS Mean MinResponse % 72 h PANC0504.1 on Panc 05.04 cells (SF3b K700E mutant).
−64.747

Quote Panc 05.04 cells (SF3b K700E mutant) CTGlo-ATS Mean MinResponse % 72 h PANC0504.1 for entry C/C(=C\c1cccc2c1c(C)nn2C)[C@H]1OC(=O)C[C@H](O)CC[C@H](C)[C@@H](OC(=O)N2CCN(C)CC2)/C=C/[C@@H]1C .
46.987

State the measured CTGlo-ATS Mean MinResponse % 72 h PANC0504.1 (Panc 05.04 cells (SF3b K700E mutant)) of C/C(=C\c1cc(F)cc(N2CCOCC2)c1)[C@H]1OC(=O)C[C@H](O)CC[C@H](C)[C@@H](OC(=O)N2CCN3CCCC3C2)/C=C/[C@@H]1C (some centres unmarked)
−88.044

Give CTGlo-ATS Mean MinResponse % 72 h PANC0504.1 for C/C(=C\c1cc(Cl)cc(Cl)c1)[C@H]1OC(=O)C[C@H](O)CC[C@H](C)[C@@H](OC(=O)N2CCN(C)CC2)/C=C/[C@@H]1C tested on Panc 05.04 cells (SF3b K700E mutant).
−89.415

Please respond with reported CTGlo-ATS Mean MinResponse % 72 h PANC0504.1 (system Panc 05.04 cells (SF3b K700E mutant)) for C/C(=C\c1ccc2c(F)nn(CC3CC3)c2c1)[C@H]1OC(=O)C[C@H](O)CC[C@H](C)[C@@H](OC(=O)N2CCN(C)CC2)/C=C/[C@@H]1C .
−94.957

Specify the recorded CTGlo-ATS Mean MinResponse % 72 h PANC0504.1 for C/C(=C\c1cc(F)cc(F)c1)[C@H]1OC(=O)C[C@H](O)CC[C@H](C)[C@@H](OC(=O)N2CCN(C)CC2)/C=C/[C@@H]1C , system: Panc 05.04 cells (SF3b K700E mutant).
−41.132

Enter measured CTGlo-ATS Mean MinResponse % 72 h PANC0504.1, system Panc 05.04 cells (SF3b K700E mutant), for the molecule shown: CNC(=O)[C@H]1CN(c2cc(F)cc(/C=C(\C)[C@H]3OC(=O)C[C@H](O)CC[C@H](C)[C@@H](OC(=O)N4CCN(C)CC4)/C=C/[C@@H]3C)c2)CCO1
−93.916

Look up and report CTGlo-ATS Mean MinResponse % 72 h PANC0504.1, with Panc 05.04 cells (SF3b K700E mutant) as system, for C/C(=C\c1cccc(N2CCN(C)CC2)c1)[C@H]1OC(=O)C[C@H](O)CC[C@H](C)[C@@H](OC(=O)N2CCN(C)CC2)/C=C/[C@@H]1C
−76.626

Answer briefly: CTGlo-ATS Mean MinResponse % 72 h PANC0504.1 recorded on Panc 05.04 cells (SF3b K700E mutant) for C/C(=C\c1ccc2cnn(C)c2c1)[C@H]1OC(=O)C[C@H](O)CC[C@H](C)[C@@H](OC(=O)N2CCN(C)CC2)/C=C/[C@@H]1C
−85.478

Give CTGlo-ATS Mean MinResponse % 72 h PANC0504.1 for this entry on Panc 05.04 cells (SF3b K700E mutant): C/C(=C\c1cc(F)c2cnn(C3CCOCC3)c2c1)[C@H]1OC(=O)C[C@H](O)CC[C@H](C)[C@@H](OC(=O)N2CCN(C)CC2)/C=C/[C@@H]1C
−76.511

Enter measured CTGlo-ATS Mean MinResponse % 72 h PANC0504.1, system Panc 05.04 cells (SF3b K700E mutant), for the molecule shown: C/C(=C\c1ccc2nccn2c1)[C@H]1OC(=O)C[C@H](O)CC[C@H](C)[C@@H](OC(=O)N2CCN(C)CC2)/C=C/[C@@H]1C
−5.029

Supply CTGlo-ATS Mean MinResponse % 72 h PANC0504.1 measured with Panc 05.04 cells (SF3b K700E mutant) for C/C(=C\c1cc(F)c2cn[nH]c2c1)[C@H]1OC(=O)C[C@H](O)CC[C@H](C)[C@@H](OC(=O)N2CCN(C)CC2)/C=C/[C@@H]1C .
−95.512

Check Panc 05.04 cells (SF3b K700E mutant) data and give CTGlo-ATS Mean MinResponse % 72 h PANC0504.1 for C/C(=C\c1cc(F)cc(N2CCN(C(=O)c3cnco3)CC2)c1)[C@H]1OC(=O)C[C@H](O)CC[C@H](C)[C@@H](OC(=O)N2CCN(C)CC2)/C=C/[C@@H]1C .
−71.328
